test_description: Cmax in rat at 20 mg/kg, po after 6 hrs
Assay type: ADME, organism-based
Parameters: dose 20 mg/kg, route oral
setup_conditions: in vivo
measurement_type: Cmax (nM)

- compound: "O=C(Nc1cccnc1)Oc1ccc(OCc2nc3ccccc3s2)cc1C1(c2ccccc2)CC2CCC1C2 (racemic)"
  recorded_value: 1100
